Listed molecules paired with reported inhibition at 1 µM
System: SARS-CoV-2
Experiment: microbe, parasite or virus in culture
Assay type: cell-based
Details: Severe acute respiratory syndrome coronavirus 2, Vero C1008, 1 μM; infected Vero E6 cells, MOI 0.01; read-out: Anti-SARS-CoV-2 Effect Assay (%) 1 μM

{"Molecule": "CC1=NN(c2ccc(Cl)cc2)C(=O)/C1=C\\c1ccc(OCc2cn(CC(=O)Nc3ccc(C)c(F)c3)nn2)cc1 [6m]", "Unit Descriptor": "%", "inhibition at 1 µM": 9.55}
{"Molecule": "CC1=NN(c2ccc(Cl)cc2)C(=O)/C1=C\\c1ccc(OCc2cn(-c3ccc(Cl)cc3)nn2)cc1 [6f]", "Unit Descriptor": "%", "inhibition at 1 µM": 1.54}
{"Molecule": "CC1=NN(c2ccc(Cl)cc2)C(=O)/C1=C\\c1ccc(OCc2cn(CC(=O)Nc3ccc([N+](=O)[O-])cc3)nn2)cc1 [6l]", "Unit Descriptor": "%", "inhibition at 1 µM": 8.84}
{"Molecule": "CC(=O)c1ccc(-n2cc(COc3ccc(/C=C4\\C(=O)N(c5ccc(Cl)cc5)N=C4C)cc3)nn2)cc1 [6c]", "Unit Descriptor": "%", "inhibition at 1 µM": 4.46}
{"Molecule": "CC1=NN(c2ccc(Cl)cc2)C(=O)/C1=C\\c1ccc(OCc2cn(CC(=O)NCc3ccc(Cl)cc3)nn2)cc1 [6n]", "Unit Descriptor": "%", "inhibition at 1 µM": 3.73}
{"Molecule": "CC1=NN(c2ccc(Cl)cc2)C(=O)/C1=C\\c1ccc(OCc2cn(CC(=O)Nc3ccc(C(=O)O)cc3)nn2)cc1 [6i]", "Unit Descriptor": "%", "inhibition at 1 µM": 21.9}
{"Molecule": "CC1=NN(c2ccc(Cl)cc2)C(=O)/C1=C\\c1ccc(OCc2cn(CC(=O)NCc3ccc(C)cc3)nn2)cc1 [6o]", "Unit Descriptor": "%", "inhibition at 1 µM": 12.2}

* * *

Tested on: SARS-CoV-2
Assay: microbe, parasite or virus in culture
Assay type: cell-based
Conditions: Severe acute respiratory syndrome coronavirus 2, Vero C1008, 1 μM; infected Vero E6 cells, MOI 0.01; read-out: Anti-SARS-CoV-2 Effect Assay (%) 1 μM
Listed compounds paired with reported inhibition at 1 µM
Quantity Measured: inhibition at 1 µM

{"Compound": "CC1=NN(c2ccc(Cl)cc2)C(=O)/C1=C\\c1ccc(OCc2cn(-c3ccc(C(=O)O)cc3)nn2)cc1", "Measured": "10.8%"}
{"Compound": "CC1=NN(c2ccc(Cl)cc2)C(=O)/C1=C\\c1ccc(OCc2cn(-c3ccc(C)c(F)c3)nn2)cc1", "Measured": "15.5%"}
{"Compound": "CC1=NN(c2ccc(Cl)cc2)C(=O)/C1=C\\c1ccc(OCc2cn(CC(=O)NCc3ccc(F)cc3)nn2)cc1", "Measured": "12.9%"}
{"Compound": "CC1=NN(c2ccc(Cl)cc2)C(=O)/C1=C\\c1ccc(OCc2cn(-c3ccc([N+](=O)[O-])cc3)nn2)cc1", "Measured": "17.4%"}
{"Compound": "CC(C)CC(NC(=O)OCc1ccccc1)C(=O)NC(CC1CCNC1=O)C(O)S(=O)(=O)O (stereo not drawn) [GC-376, reference compound]", "Measured": "79%"}
{"Compound": "COc1ccc(CNC(=O)Cn2cc(COc3ccc(/C=C4\\C(=O)N(c5ccc(Cl)cc5)N=C4C)cc3)nn2)cc1", "Measured": "9.5%"}
{"Compound": "CC1=NN(c2ccc(Cl)cc2)C(=O)/C1=C\\c1ccc(OCc2cn(CC(=O)Nc3ccc(F)cc3)nn2)cc1", "Measured": "16.2%"}
{"Compound": "CC1=NN(c2ccc(Cl)cc2)C(=O)/C1=C\\c1ccc(OCc2cn(-c3ccc(F)cc3)nn2)cc1", "Measured": "7.38%"}
{"Compound": "CC1=NN(c2ccc(Cl)cc2)C(=O)/C1=C\\c1ccc(OCc2cn(-c3ccc(Cl)c(Cl)c3)nn2)cc1", "Measured": "12.2%"}

* * *

Target: UniProtKB P0DTD1
Test: biochemical
Details: unit inferred, read-out: IC50 (numbers printed in the chart of Figure 5)
pIC50: −log10 of the molar value.

{"Molecule": "CC1=NN(c2ccccc2)C(=O)/C1=C\\c1ccc(OCc2cn(CC(=O)Nc3ccc(F)cc3)nn2)cc1 [6k]", "pIC50": 3.70}

* * *

Target: SARS-CoV-2 Main protease (Severe acute respiratory syndrome coronavirus 2, UniProt P0DTD1)
Experiment: biochemical
Settings: triplicate readings with SE, read-out: IC50 (μM) ± SE
Label Y when IC50 is strictly below 30 µM; at or above that, label N.

{"Compound": "CC1=NN(c2ccc(Cl)cc2)C(=O)/C1=C\\c1ccc(OCc2cn(CC(=O)Nc3ccc(F)cc3)nn2)cc1 [6j]", "Tested System": "SARS-CoV-2 Main protease (Severe acute respiratory syndrome coronavirus 2, UniProt P0DTD1)", "Group": "N"}
{"Compound": "CC1=NN(c2ccc(Cl)cc2)C(=O)/C1=C\\c1ccc(OCc2cn(-c3ccc(Cl)c(Cl)c3)nn2)cc1 [6g]", "Tested System": "SARS-CoV-2 Main protease (Severe acute respiratory syndrome coronavirus 2, UniProt P0DTD1)", "Group": "N"}
{"Compound": "CC1=NN(c2ccc(Cl)cc2)C(=O)/C1=C\\c1ccc(OCc2cn(-c3ccc(F)cc3)nn2)cc1 [6d]", "Tested System": "SARS-CoV-2 Main protease (Severe acute respiratory syndrome coronavirus 2, UniProt P0DTD1)", "Group": "N"}
{"Compound": "CC1=NN(c2ccc(Cl)cc2)C(=O)/C1=C\\c1ccc(OCc2cn(CC(=O)Nc3ccc(C)c(F)c3)nn2)cc1 [6m]", "Tested System": "SARS-CoV-2 Main protease (Severe acute respiratory syndrome coronavirus 2, UniProt P0DTD1)", "Group": "Y"}
{"Compound": "Cc1cccc(C)c1OCC(=O)N[C@@H](Cc1ccccc1)[C@@H](O)C[C@H](Cc1ccccc1)NC(=O)[C@H](C(C)C)N1CCCNC1=O [lopinavir, reference compound]", "Tested System": "SARS-CoV-2 Main protease (Severe acute respiratory syndrome coronavirus 2, UniProt P0DTD1)", "Group": "N"}
{"Compound": "COc1ccc(CNC(=O)Cn2cc(COc3ccc(/C=C4\\C(=O)N(c5ccc(Cl)cc5)N=C4C)cc3)nn2)cc1 [6p]", "Tested System": "SARS-CoV-2 Main protease (Severe acute respiratory syndrome coronavirus 2, UniProt P0DTD1)", "Group": "Y"}
{"Compound": "CC1=NN(c2ccc(Cl)cc2)C(=O)/C1=C\\c1ccc(OCc2cn(CC(=O)NCc3ccc(Cl)cc3)nn2)cc1 [6n]", "Tested System": "SARS-CoV-2 Main protease (Severe acute respiratory syndrome coronavirus 2, UniProt P0DTD1)", "Group": "N"}
{"Compound": "CC1=NN(c2ccc(Cl)cc2)C(=O)/C1=C\\c1ccc(OCc2cn(CC(=O)NCc3ccc(C)cc3)nn2)cc1 [6o]", "Tested System": "SARS-CoV-2 Main protease (Severe acute respiratory syndrome coronavirus 2, UniProt P0DTD1)", "Group": "N"}
{"Compound": "CC1=NN(c2ccc(Cl)cc2)C(=O)/C1=C\\c1ccc(OCc2cn(CC(=O)Nc3ccc([N+](=O)[O-])cc3)nn2)cc1 [6l]", "Tested System": "SARS-CoV-2 Main protease (Severe acute respiratory syndrome coronavirus 2, UniProt P0DTD1)", "Group": "N"}
{"Compound": "CC1=NN(c2ccccc2)C(=O)/C1=C\\c1ccc(OCc2cn(-c3ccc(C(=O)O)cc3)nn2)cc1 [6b]", "Tested System": "SARS-CoV-2 Main protease (Severe acute respiratory syndrome coronavirus 2, UniProt P0DTD1)", "Group": "N"}
{"Compound": "CC1=NN(c2ccc(Cl)cc2)C(=O)/C1=C\\c1ccc(OCc2cn(-c3ccc(Cl)cc3)nn2)cc1 [6f]", "Tested System": "SARS-CoV-2 Main protease (Severe acute respiratory syndrome coronavirus 2, UniProt P0DTD1)", "Group": "N"}
{"Compound": "CC1=NN(c2ccc(Cl)cc2)C(=O)/C1=C\\c1ccc(OCc2cn(-c3ccc(C)c(F)c3)nn2)cc1 [6h]", "Tested System": "SARS-CoV-2 Main protease (Severe acute respiratory syndrome coronavirus 2, UniProt P0DTD1)", "Group": "Y"}
{"Compound": "CC1=NN(c2ccccc2)C(=O)/C1=C\\c1ccc(OCc2cn(CC(=O)Nc3ccc(F)cc3)nn2)cc1 [6k]", "Tested System": "SARS-CoV-2 Main protease (Severe acute respiratory syndrome coronavirus 2, UniProt P0DTD1)", "Group": "N"}
{"Compound": "CC(=O)c1ccc(-n2cc(COc3ccc(/C=C4\\C(=O)N(c5ccc(Cl)cc5)N=C4C)cc3)nn2)cc1 [6c]", "Tested System": "SARS-CoV-2 Main protease (Severe acute respiratory syndrome coronavirus 2, UniProt P0DTD1)", "Group": "N"}
